TARGET_UNDER_TEST: T1, p2S (p2 peptide biotinylated through its free cysteine) (human, also: biotinylated (maleimide PEO2-biotin) on one of the two Cys, which one not given here)
T1 construct: The peptide has two cysteines; also called b-p2S
T1 peptide: RPRYACCPGWKRT
ASSAY_NOTES: SPR (BIAcore-2000), IgG injected over immobilized p2S peptide;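 also: CM5 chip with immobilized peptide, IgG at 0.5–1000 nM in PBST, 3 min association and 3.5 min dissociation, reference-cell subtracted, rates fitted by 1:1 Langmuir model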
Where no end group is shown, it is not given here.
Would you kindly list kon for each of these binders?
Give bare numbers, in M⁻¹ s⁻¹.

These recorded examples may help you get a feel for the data.
4F11.v10 IgG (antibody, V domains shown, IgG; Kabat numbering) VH: EVQLVESGGGLVQPGGSLRLSCAASGHTFTTYGMSWVRQAPGKGLEWVGWINTHSGVPTYADDFKGRFTISRDNSKNTVYLQMNSLRAEDTAVYYCARLGSYAVDYWGQGTLVTVSS VL: DIQMTQSPSSLSASVGDRVTITCKASQSVDYDGDSYMSWYQQKPGKAPKLLIYGASYLESGVPSRFSGSGSGTDFTLTISSLQPEDFATYYCQQNNEDPYTFGQGTKVEIK    72000
4F11.v5 IgG (antibody, V domains shown, IgG; Kabat numbering) VH: EVQLVESGGGLVQPGGSLRLSCAASGHTFTTYGMSWVRQAPGKGLEWVGWINTHSGVPTYADDFKGRFTISRDNSKNTVYLQMNSLRAEDTAVYYCARLGSSAVDYWGQGTLVTVSS VL: DIQMTQSPSSLSASVGDRVTITCKASQSVDYDGDSYVSWYQQKPGKAPKLLIYGASNLESGVPSRFSGSGSGTDFTLTISSLQPEDFATYYCQQNNEDPYTFGQGTKVEIK    71100
4F11.v12 IgG (antibody, V domains shown, IgG; Kabat numbering) VH: EVQLVESGGGLVQPGGSLRLSCAASGHTFTTYGMSWVRQAPGKGLEWVGWINIHSGVPTYADDFKGRFTISRDNSKNTVYLQMNSLRAEDTAVYYCARLGSSAVDYWGQGTLVTVSS VL: DIQMTQSPSSLSASVGDRVTITCKASQSVDYDGDSYMSWYQQKPGKAPKLLIYGASNLESGVPSRFSGSGSGTDFTLTISSLQPEDFATYYCQQNNEDPYTFGQGTKVEIK    196000
4F11.v2 IgG (antibody, name in Kabat numbering, V domains shown, IgG; Kabat numbering) VH: EVQLVESGGGLVQPGGSLRLSCAASGHTFTTYGMSWVRQAPGKGLEWVGWINTHSGVPTYADDFKGRFTISRDNSKNTTYLQMNSLRAEDTAVYYCARLGSSAVDYWGQGTLVTVSS VL: DIQMTQSPSSLSASVGDRVTITCKASQSVDYDGDSYMSWYQQKPGKAPKLLIYGASNLESGVPSRFSGSGSGTDFTLTISSLQPEDFATYYCQQNNEDPYTFGQGTKVEIKR    53500
4F11.v6 IgG (antibody, V domains shown, IgG; Kabat numbering) VH: EVQLVESGGGLVQPGGSLRLSCAASGHTFTTYGMSWVRQAPGKGLEWVGWINTHSGVPTYADDFKGRFTISRDNSKNTVYLQMNSLRAEDTAVYYCARLGSSAVDYWGQGTLVTVSS VL: DIQMTQSPSSLSASVGDRVTITCKASQSVDYDGDSYMSWYQQKPGKAPKLLIYGASYLESGVPSRFSGSGSGTDFTLTISSLQPEDFATYYCQQNNEDPYTFGQGTKVEIK    123000

Query: Could you share which kon value was measured for 4F11.v1 IgG (antibody, V domains shown, Expressed as IgG in 293 cells; also called 4F11-graft; direct CDR-graft) VH: EVQLVESGGGLVQPGGSLRLSCAASGHTFTTYGMSWVRQAPGKGLEWVGWINTHSGVPTYADDFKGRFTISRDNSKNTLYLQMNSLRAEDTAVYYCARLGSSAVDYWGQGTLVTVSS VL: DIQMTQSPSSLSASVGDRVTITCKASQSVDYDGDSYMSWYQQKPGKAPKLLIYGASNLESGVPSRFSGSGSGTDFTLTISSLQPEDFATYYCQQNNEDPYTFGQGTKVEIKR ?
Response: 34200
